# system-under-test: UniProtKB Q07820
# assay: Inhibition of Mcl-1 by the fluorescence polarisation technique
# Type: binding
# condition-label: fluorescence polarisation test; Fluorescein labelled ligand 1 nM, Mcl-1 protein 5 nM, ~2 hours at r.t.; read-out: IC50 (M) Mcl-1 FP
readout-type: IC50 (M)

Past entries and their recorded results:
compound | readout-type | assay-result
COCCOCCOCCOc1cccc(-c2nccc(COc3ccccc3CC(Oc3ncnc4sc(-c5ccc(F)cc5)c(-c5ccc(OCCN6CCN(C)CC6)c(Cl)c5C)c34)C(=O)O)n2)c1 (centres unmarked) [Example 48] | IC50 | 3.85e-09
Cc1c(-c2c(-c3ccc(F)cc3)sc3ncnc(OC(Cc4ccccc4OCc4ccnc(-c5cccc(OCC(O)CO)c5)n4)C(=O)O)c23)ccc(OCCN2CCN(C)CC2)c1Cl (centres unmarked) [Example 47] | IC50 | 4.05e-09
COCC(COC)Oc1ccc(-c2nccc(COc3ccccc3CC(Oc3ncnc4sc(-c5ccc(F)cc5)c(-c5ccc(OCCN6CCN(C)CC6)c(Cl)c5C)c34)C(=O)O)n2)cc1 (centres unmarked) [Example 14] | IC50 | 6.15e-09
CCOC(=O)OC(C)OC(=O)C(Cc1ccccc1OCc1ccnc(-c2cccc(OC(COC)COC)c2)n1)Oc1ncnc2sc(-c3ccc(F)cc3)c(-c3ccc(OCCN4CCN(C)CC4)c(Cl)c3C)c12 (centres unmarked) [Example 69] | IC50 | 7.6e-08
Cc1c(-c2c(-c3ccc(F)cc3)sc3ncnc(OC(Cc4ccccc4OCc4ccnc(-c5ccc(OCCOCCOCCO)cc5)n4)C(=O)O)c23)ccc(OCCN2CCN(C)CC2)c1Cl (centres unmarked) [Example 54] | IC50 | 4.6e-09
Cc1c(-c2c(-c3ccc(F)cc3)sc3ncnc(OC(Cc4ccccc4OCc4ccnc(-c5ccc(OCCN(CCO)CCO)cc5)n4)C(=O)O)c23)ccc(OCCN2CCN(C)CC2)c1Cl (centres unmarked) [Example 53] | IC50 | 4.65e-09
Cc1c(-c2c(-c3ccc(F)cc3)sc3ncnc(OC(Cc4ccccc4OCc4ccnc(-c5ccc(OCC6OC(O)C(O)C(O)C6O)cc5)n4)C(=O)O)c23)ccc(OCCN2CCN(C)CC2)c1Cl (centres unmarked) [Example 20] | IC50 | 4.35e-09
Cc1c(-c2c(-c3ccc(F)cc3)sc3ncnc(OC(Cc4ccccc4OCc4ccnc(-c5ccc(CCO)cc5)n4)C(=O)O)c23)ccc(OCCN2CCN(C)CC2)c1Cl (centres unmarked) [Example 24] | IC50 | 3.15e-09

P = COC1OC(COc2ccc(-c3nccc(COc4ccccc4CC(Oc4ncnc5sc(-c6ccc(F)cc6)c(-c6ccc(OCCN7CCN(C)CC7)c(Cl)c6C)c45)C(=O)O)n3)cc2)C(OC)C(OC)C1OC (centres unmarked) [Example 19]
Q = Cc1c(-c2c(-c3ccc(F)cc3)sc3ncnc(OC(Cc4ccccc4OCc4ccnc(-c5cccc(COC(=O)N6CCOCCOCCOCCOCCOCC6)c5)n4)C(=O)O)c23)ccc(OCCN2CCN(C)CC2)c1Cl (centres unmarked) [Example 46]
Q: Lab note: record which item had the higher IC50, P or Q . Please reply using the label of the selected record.
A: P
(P: 4.95e-09 M, Q: 2.55e-09 M)

====

# system-under-test: Mcl-1 protein (Homo sapiens, UniProt Q07820)
# Sequence (Q07820 whole entry): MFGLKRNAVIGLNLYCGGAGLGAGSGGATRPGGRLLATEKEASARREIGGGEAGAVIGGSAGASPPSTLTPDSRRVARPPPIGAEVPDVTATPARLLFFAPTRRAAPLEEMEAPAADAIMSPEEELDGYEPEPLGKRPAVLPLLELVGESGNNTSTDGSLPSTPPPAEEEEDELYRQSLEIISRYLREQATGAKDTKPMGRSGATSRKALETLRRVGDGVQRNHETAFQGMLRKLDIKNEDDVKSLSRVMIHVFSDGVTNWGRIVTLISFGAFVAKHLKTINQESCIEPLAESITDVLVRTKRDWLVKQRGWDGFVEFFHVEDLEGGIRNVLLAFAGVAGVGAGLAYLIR
# assay: Inhibition of Mcl-1 by the fluorescence polarisation technique
# Assay type: binding
# condition-label: fluorescence polarisation test; Fluorescein labelled ligand 1 nM, Mcl-1 protein 5 nM, ~2 hours at r.t.; read-out: IC50 (M) Mcl-1 FP
readout-type: IC50 (M)

compound | system-under-test | IC50, M
Cc1c(-c2c(-c3ccc(F)cc3)sc3ncnc(OC(Cc4ccccc4OCc4ccnc(-c5ccc(OCC(O)CO)cc5)n4)C(=O)O)c23)ccc(OCCN2CCN(C)CC2)c1Cl (stereo not drawn) | Mcl-1 protein (Homo sapiens, UniProt Q07820) | 2.75e-09

A = COCCOCCOCCOc1ccc(-c2nccc(COc3ccccc3CC(Oc3ncnc4sc(-c5ccc(F)cc5)c(-c5ccc(OCCN6CCN(C)CC6)c(Cl)c5C)c34)C(=O)O)n2)cc1 (stereo not drawn)
B = COCCOCCOCCOc1ccccc1-c1nccc(COc2ccccc2CC(Oc2ncnc3sc(-c4ccc(F)cc4)c(-c4ccc(OCCN5CCN(C)CC5)c(Cl)c4C)c23)C(=O)O)n1 (stereo not drawn)
Q: I'm curious whether A or B has the smaller IC50 number. Which is it? Kindly give the label for the entry you pick.
A: B
(B: 3.75e-09 M, A: 2.24e-08 M)
